assay: yeast display, Sf9 membrane polyspecificity reagent, FACS + sequencing; frameworks hold sequencing errors
measured quantity: polyreactivity (PSR sort gate)

QVQLVESGGGLVQAGGSLRLSCAASGSTFNDNAMGWYRPAPGKERELVAAIRWSGGSTYYADSVKGRFTISRDNAKNTVYLQMNSLKPEDTAVYYCAASRRYYLTYRYYYWGQGTQVTVSS    high polyreactivity
QVQLVESGGGLVQAGGSLRLSCAASGSIFVRNAMGWYRQAPGKERELVAAITYRGGSTYYADSVKGRFTISRDNAKNTVYFQMNSLKPEDTAVYYCFDVNTDVLSRVYRGWGYYYWGQGTQVTVSS    low polyreactivity
QVQLVESGGGLVQAGGSLRLSCAASGITFEANTMGWYRQAPAKERELVAVITDTGSTNYADSVKGRFTISRDNAKNTVYLQMNSLKPEDTAVFYCKADAEPSSGTSAKNDYWGQGTQVSVSS    low polyreactivity
QVQLVESGGGLVQAGGSLRLSCAASGRIFTRNAMGWYRQAPGKERELVAAISGTGGSTYYADSVKGRFTISRDNAKNTVYLQMNSLKPEDTAVYYCAASRARTRSAYNYWGQGTQVTVSS    high polyreactivity
QVQLVESGVALVQAAGSLRLSCAASGSTFGYYTMGWYRQAPGKERELVAAISWSGGSTYYADSVKGRFTISRDHAKTTVYLQMNSLKPEDTAVYFCAAKTNRGSYSYEYWGQGTQVTVSS    high polyreactivity

Query polyreactivity (PSR sort gate) for QVQLVESGGGLVQAGGSLSLSCAASGRTFSYYTMGWYRQAPGKERELVARISNRGTNTYYADSVKGRFTISRDNAKNTVYLQMNSLTPEDTAVYYCAKYYYTSIVGYDSWGQGTQVTVSS
low polyreactivity

Using the record for QVHLVESGGGLVQAGGSLRLSSDASGSTFHPYAMGLYRQAPGKERELVAAISWTGGRTYYADSVKGRFTISRDYAKNTVYLQMNRLKREDTAVYYCAARTYGKVGYWGQGTQVTVSS , state its measured polyreactivity (PSR sort gate).
high polyreactivity

Read off the recorded polyreactivity (PSR sort gate) for QVQLVESGGGLVQAGGSLRLSCAASGFIFVDNAMGWYRQAPGKERELVAAITYRGGSTYYADSVKGRFTISRDNAKNTVYLQMNSLKPEVTAVYYCNADYGDTFEYDYWGQGTQVTVSS
low polyreactivity

Quickly give me recorded polyreactivity (PSR sort gate) for QVQLVESGGGLVQAGGSLRLSCAASGFTFGTYVMGWYRQAPGKERELVARITYGGGRTYYADSVKGRFTISRDNAKNTVYLQMNSLKPEDTAVYYCNARVTYSRYFKGYNYWGQGTQVTVSS
high polyreactivity

Please supply the value of reported polyreactivity (PSR sort gate) for the item QVQLVESGGGLVQAGGSLRLSCAASGLTFGRNAMGWYRQAPGKERELVAAIRWSGGSTYYADSVKGRFTISRDNAKNTVYLQMNSLKPEDTAVYYCAATRVLRPVGTHYYYWGQGTQVTVSS
high polyreactivity

Report measured polyreactivity (PSR sort gate); entry is QVQLVESGGGLVQAGGSLRLSCAASGRTFWKYAMGWYRQAPGKERELVAAITASGARTYYADSVKGRFTISRDNAKNTVYLQMNSLKPEDTAVYYCNAGSVSDRQMDYWGQGTQVTVSS
low polyreactivity

---

test: yeast display, Sf9 membrane polyspecificity reagent, FACS + sequencing; frameworks hold sequencing errors
measured quantity: polyreactivity (PSR sort gate)

Some entries whose results are on file:
QVQLVESGGGLVQAGGSLRLSCAASGFTFAYYAMGWYRPAPGKERELVATIRGGGSTNYADSVKGRFTISRDNAKNTVYLQMNSLKPEDTAVYYCAAGYVWYFDYFSAYYWGQGTQVTVSS    high polyreactivity
QVQLVESGGGLVQAGGSLRLSCAASGSTLWRYAMGWYRQAPGKERELVAGISRGGGSTYYADSVKGRFTISRDNANKTVYLQKNSLKPEDTAVYYCAADDPLYSISTGDYWGQGTQVTVSL    low polyreactivity
QVQIVESGGGLVQAGGSLRLSCAASGRIFERYAMGWYRQAPGKERELVAGISISGGGTYYADSVKGRFTISRDNAKNTVYLQMNSLKPEHNAVYYCAGTFPREEYGYWGEGTQVTVSS    low polyreactivity
QVQLVESGGGLVQAGGSLRLSCAASGIIFRQYAMGWYRQAPGKERELVAGISSRGGSTYYADSVKGRFTISRDNAKNTVYLQMNSLKPEDTAVYYCAARYPGYFYHLDYWGQGTQVTVSS    low polyreactivity

Please supply the value of reported polyreactivity (PSR sort gate) for the item QVQLVDSGGGLVQAGGSLRLSCAASGIIFPVYAMGWYRQAPGKERELVAAITYSGDRTYYADSVKGRFTISRDNAKNTVYLQMNSLKPEDSAVYYCNARFGVWPYFYNEDDYWGQGTQVTVSS
low polyreactivity

Entry QVQLVESGGGLVQAGGSLRLSCAASGLTFNYYAMGWYRQAPGKERELVAAISSSTGSTYYADSVKGRFTISRDNAKYTVYLQMNSLKPEDTAVYYCAAVRTKAYVSRTSQSGYWGQGTQVTVSS needs its polyreactivity (PSR sort gate) filled in; supply it.
high polyreactivity

// fetch polyreactivity (PSR sort gate) given entry QVQRVESGGGLVQAGGSLRLSCAASGRIFQIYAMGWYRQAPGKERELVAAIRSGSNTNYADSVKGRFTISRDNAKNTVYLQMNSLKPEDTAVYYCNALYTSLRKDNYWGQGTQVTVST
low polyreactivity

Give the reported polyreactivity (PSR sort gate) for this sequence. QVQLVESGGGLVQAGGSLRLSCAASGSIFVDYVMVWYRQAPGKERELVAAISGNGGRTYYADSVKGRFTISRDNAKNTVYLQMNSLKPEDTAVYYCAKVRSVTIGRDYWGQGTQVTVSS
high polyreactivity

Report polyreactivity (PSR sort gate) for QVQLVESGGGLVQAGGSLRLSCAASGFISFDNAMGWYRQAPGKERELVAAIRSGGSTNYADSVKGRFTISRDNAKNSVYLQMNSLKPEDTAVYYCAALDQYGYYQKYYYWGQGTQVTVSS
low polyreactivity

Give recorded polyreactivity (PSR sort gate). QVQLVESGGGLVQAGGSLRLSCAASGSIFGQYAMGRYRQAPGKERDLVAAIDWSSASTYYADSVKGRVTISRDNAKNTVYLQMNSLKPEDTAVYDCNAVGKYYRYDYWGQGTQVTVSS
high polyreactivity

Using known records, supply polyreactivity (PSR sort gate) for QVQLVESGGGLVQAGGSLRLSCAASGSTFVTYAMGWYRQAPGKERELVAAITTSGGSTYYADSVKGRFTISRANAMNTVYLQMNSLKPEDTAVYYCIAGFEYTQEYDYWGQGTQVTVSS
low polyreactivity

Indicate its recorded polyreactivity (PSR sort gate); the sequence in question is QVQLVESGGGLVQAAGSLRLSCAASGSIFSTYAMGWYRQAPGKERELVAAINRGTSTNYADSVKGRFTISRDNAKNTVYLQMNSLKPEDTAVYYCAAYYRGRYGPRRSEYWGQGTQVTVSS
high polyreactivity

Name the recorded polyreactivity (PSR sort gate) of the sequence listed here: QVQLVESGGGLVQAGGSLRLSCAASGSIFVGNAMGWYRQAPGTERELVAAISSSGGSTYSADSVKGRFTISRDNAKNTVYLQMNSLKPEDTAVYYCAADTYSTSGYYYWGQGTQVTVSS
low polyreactivity

In one line, give reported polyreactivity (PSR sort gate) of the entry QVQLVESGGGLVQAGGSLRLSCAASGRTFPSYTMGWYRQAPGKERELVAAISKSGGNTYYADSVKGRFTISRDNAKNTVYLQMNSLKPEDTAVYYCNADTYALGAAVIPGDEYWGQGTQVTVSS .
low polyreactivity

// Input: QVQLVESGGGLVQAGGSLRLSCAASGSIFYYYAMVWSRQAPGKERELVAAISSGGRTYYADSVKGRFTISRDNAKYTVYLQMNSLKPEDTAVYYCAAVLRSNRGGYWGQGTQVTVSS . Output its polyreactivity (PSR sort gate) only.
high polyreactivity

Given QVQLVESGGGLVQAGGSLRLTCAASGNTFFFNTMGWYRQAPGKERELVAVISSSGGTYYADSVKGRFTISRDNAKNTVYLQMNSLKQEDTAVYYCNADWHTHGYPTGKTGFKYYYWGQGTQVTVSS , respond with its polyreactivity (PSR sort gate).
low polyreactivity

Retrieve polyreactivity (PSR sort gate) measured for QVQLVESGGGLVQARGSLRLSCAASGSISDYYAMGWYRQAPGKERELVAAISWDGGSTYYADSVKGRFTISRDNAKNTVYLQLNSLKPEDTAVYYCNAGSGASVGNNILYDYWGQGTQVTVSS and print it.
low polyreactivity

Provide only the value of recorded polyreactivity (PSR sort gate) for QVQLVESGGGLVQAGGSLRLSCAASGFTFKYNAMGWYRQAPGKERELVASISSGSTNYADSVKGRFTISRDNAKNTVYLQMNSLKPEDTAVYYCSASVSRGKRFRYGYVFKMDYWGQGTQVTVSS
low polyreactivity

Return polyreactivity (PSR sort gate) for the following sequence: QVQLVESGGGLVQAGGSLRLSCAASGIIFPRYVMGWYRQAPGKERELVAAINRSGGSTYYADSVKGRFTISRDYAKNTVYLQMNSLKPEDTAVYYCAALDVRSYRGGYWGQGTQVTVSS
high polyreactivity

Determine from records and report polyreactivity (PSR sort gate) for QVQLVESGGGLVQAGGSLRLSCAASGRIFWHNTMGWYRQAPGKERELVATITGGDGNTYYADSVKGRFTISRDNAKNTVYLQMNSLKPEDNAVYYCAKAIVSYDYGRYGKWHEYWGQGTQVTVSS
low polyreactivity

Return the recorded polyreactivity (PSR sort gate) value; entry: QVQLVESGGGLVQAGGSLRLSCAASGYLFSYYAMGWSRQAPGKERELVATIDWGGGSTYYADSVKGRFTISRDNAKNTVYLQMNSLKPEDTGVYYCSKDYYITKYGYRYDSWGQGTQVTVSS
low polyreactivity
